Target: T1, Stx10 (1-110) (human, UniProt O60499 1-110)
T1 sequence (looked up): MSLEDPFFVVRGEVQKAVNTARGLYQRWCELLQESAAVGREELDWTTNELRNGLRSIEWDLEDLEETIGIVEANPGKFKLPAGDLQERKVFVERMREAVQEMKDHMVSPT
Assay: ITC
observable: Kd (µM)

[[record]]
binder = "Ang2 (1-69) (domain or fragment, human, UniProt Q9UID3 1-69, looked up) MAAAAAAGPSPGSGPGDSPEGPEGEAPERRRKAHGMLKLYYGLSEGEAAGRPAGPDPLDPTDLNGAHFD"
observable = "Kd"
readout_units = "µM"
recorded_measurement = 6.5

